Recorded measurements of BEI, one per entry
- measurement_target: 11-beta-hydroxysteroid dehydrogenase 1 (Homo sapiens)

# molecule, units_label, BEI
rows = [
    ("O=C(N1CCC2(CCCCC2)C1)C1(c2ccccc2)CC1", "kDa-1", 32.7),
    ("O=C(N1CCC2(CCCc3ccccc32)C1)C1(c2ccc(Cl)cc2)CC1 (centres undefined)", "kDa-1", 20.9),
    ("O=C(N1CCC2(CCCCC2)C1)C1(c2ccc(Cl)cc2)CC1", "kDa-1", 25.9),
    ("O=C(N1CCC2(CCc3ccccc32)C1)C1(c2ccc(Cl)cc2)CC1 (centres undefined)", "kDa-1", 21.6),
]

----------
- measurement_target: UniProtKB P28845
- method: Inhibition of human 11beta-HSD1
- Sequence (P28845 whole entry): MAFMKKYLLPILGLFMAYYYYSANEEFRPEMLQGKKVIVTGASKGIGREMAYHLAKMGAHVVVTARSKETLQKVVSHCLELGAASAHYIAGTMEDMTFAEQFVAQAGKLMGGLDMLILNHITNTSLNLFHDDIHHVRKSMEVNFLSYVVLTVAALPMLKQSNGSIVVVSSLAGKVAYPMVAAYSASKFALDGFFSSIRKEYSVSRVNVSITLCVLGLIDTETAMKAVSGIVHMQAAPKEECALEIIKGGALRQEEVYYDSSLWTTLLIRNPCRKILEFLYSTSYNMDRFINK
pIC50: −log10 of the molar value.

# molecule, pIC50
measured = [
    ("O=C1CC2(CCN(C(=O)C3(c4ccccc4)CC3)CC2)Oc2ccc(F)cc21", 5.60),
]

----------
System: 11-beta-hydroxysteroid dehydrogenase 1 (Mus musculus) | Read-out: pIC50
Sequence (P50172 whole entry): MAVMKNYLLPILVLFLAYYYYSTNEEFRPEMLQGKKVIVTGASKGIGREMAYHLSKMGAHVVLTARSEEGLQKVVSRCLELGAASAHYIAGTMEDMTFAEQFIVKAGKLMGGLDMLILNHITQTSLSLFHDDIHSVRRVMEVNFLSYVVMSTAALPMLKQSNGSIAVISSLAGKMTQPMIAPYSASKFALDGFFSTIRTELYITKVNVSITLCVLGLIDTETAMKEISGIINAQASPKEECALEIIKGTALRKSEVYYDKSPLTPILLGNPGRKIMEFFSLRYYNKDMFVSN
pIC50: −log10 of the molar value.
measured_quantity: pIC50

# compound, meas_value
measured = [
    ("O=C(N1CCC2(CCCCC2)C1)C1(c2ccccc2)CC1", 6.42),
    ("O=C(N1CCC2(CCCc3ccccc32)C1)C1(c2ccc(Cl)cc2)CC1 (stereo not drawn)", 5.47),
    ("O=C(N1CCC2(CCc3ccccc32)C1)C1(c2ccc(Cl)cc2)CC1 (stereo not drawn)", 5.59),
]
